- TARGET_DESC: Nucleocapsid protein N (Rift Valley fever virus (strain M12)) (UniProt P21700)
- Sequence (P21700 whole entry): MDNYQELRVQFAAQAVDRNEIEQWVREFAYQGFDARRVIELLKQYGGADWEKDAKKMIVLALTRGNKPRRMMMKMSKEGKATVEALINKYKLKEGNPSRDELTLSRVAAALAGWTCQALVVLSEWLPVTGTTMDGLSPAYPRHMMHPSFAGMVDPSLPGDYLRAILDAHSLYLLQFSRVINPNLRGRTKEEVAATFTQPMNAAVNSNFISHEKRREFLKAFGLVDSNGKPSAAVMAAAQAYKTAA
- PROCEDURE_DETAILS: FP competition
- ASSAY_SETUP: 10 mM HEPES pH 7.3 ([…]) or pH 8 ([…]
EXPERIMENTAL_ENDPOINT: Ki (nM)

BIOSEQUENCE	OBSERVED_VALUE
CGUCCCGUAGUGUCGGUACUGAUUGAUGUG [MBE15.3]	200
